- Tested on: PANC-1 complex spheroid growth, percent test/control
- protocol_description: Anticancer human tumor PANC-1 cell line growth inhibition [Asc];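 note: spheroids exposed to agents for 7 days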;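 for viability, T/C: percent viability relative to DMSO vehicle wells taken as 100%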
- measurement_context: second compound 0.00316 µM; first compound 0.1 µM; stronger effect = lower value
- Source text: Multicellular complex tumor spheroid response to apoptosis pathway targeting inhibitors Alrizomadlin, Pelcitoclax, and Dasminapant in combination with a variety of drugs and investigational agents in selected tumor cell lines […] Compounds. […] If the clinical Cmax for an agent had not been determined, the highest concentration tested was 10 microM. […]
measurement_name: viability, T/C

molecule	viability, T/C
C=CC(=O)N1CCN(c2nc(=O)n(-c3c(C)ccnc3C(C)C)c3nc(-c4c(O)cccc4F)c(F)cc23)C(C)C1 (configuration not stated) + CNC(C)C(=O)NC1CN(S(=O)(=O)c2cccc(S(=O)(=O)N3CCC4CCC(C(=O)NC(c5ccccc5)c5ccccc5)N4C(=O)C(NC(=O)C(C)NC)C3)c2)CCC2CCC(C(=O)NC(c3ccccc3)c3ccccc3)N2C1=O	88.3%

Here is the next item to consider.
Query string: // fetch PANC-1 complex spheroid growth, percent test/control viability, T/C for COc1c(OCCCN2CCOCC2)ccc2c3n(c(=NC(=O)c4cnc(N)nc4)nc12)CCN3 + CNC(C)C(=O)NC1CN(S(=O)(=O)c2cccc(S(=O)(=O)N3CCC4CCC(C(=O)NC(c5ccccc5)c5ccccc5)N4C(=O)C(NC(=O)C(C)NC)C3)c2)CCC2CCC(C(=O)NC(c3ccccc3)c3ccccc3)N2C1=O
Result string: 74.8%

----------
Listed molecules paired with reported viability, T/C
- System: PANC-1 complex spheroid growth, percent test/control
- protocol_description: Anticancer human tumor PANC-1 cell line growth inhibition [Asc];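 note: spheroids exposed to agents for 7 days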;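 for viability, T/C: percent viability relative to DMSO vehicle wells taken as 100%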
- measurement_context: second compound 0.949 µM; first compound 10 µM; stronger effect = lower value
Record the value in %, omitting the unit from your answer.

Take a look at these entries with their results.
molecule	viability, T/C (%)
O=C(c1cc(Cc2n[nH]c(=O)c3ccccc23)ccc1F)N1CCN(C(=O)C2CC2)CC1 + CCN1C(C(=O)NC23CCC(C(=O)O)(CC2)CC3)C(c2cccc(Cl)c2F)C2(C(=O)Nc3cc(Cl)ccc32)C12CCCCC2	101
C#Cc1c(F)ccc2cc(O)cc(-c3ncc4c(N5CC6CCC(C5)N6)nc(OCC56CCCN5CC(F)C6)nc4c3F)c12 (centres undefined) + CCN1C(C(=O)NC23CCC(C(=O)O)(CC2)CC3)C(c2cccc(Cl)c2F)C2(C(=O)Nc3cc(Cl)ccc32)C12CCCCC2	82.8
C=CC(=O)N1CCN(c2nc(=O)n(-c3c(C)ccnc3C(C)C)c3nc(-c4c(O)cccc4F)c(F)cc23)C(C)C1 (centres undefined) + CCN1C(C(=O)NC23CCC(C(=O)O)(CC2)CC3)C(c2cccc(Cl)c2F)C2(C(=O)Nc3cc(Cl)ccc32)C12CCCCC2	93.1

Turning now to a further record.
Query string: Name the recorded viability, T/C for C=C(F)C(=O)N1CCN(c2nc(OCC3CCCN3C)nc3c2CCN(c2cccc4cccc(Cl)c24)C3)CC1CC#N (centres undefined) + CCN1C(C(=O)NC23CCC(C(=O)O)(CC2)CC3)C(c2cccc(Cl)c2F)C2(C(=O)Nc3cc(Cl)ccc32)C12CCCCC2 .
Result string: 28.9

----------
- System: PANC-1 complex spheroid growth, percent test/control
- protocol_description: Anticancer human tumor PANC-1 cell line growth inhibition [Asc];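 note: spheroids exposed to agents for 7 days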
- measurement_context: curve of first compound; second compound 0.3 µM
measurement_name: IC50

compound	IC50
C#Cc1c(F)ccc2cc(O)cc(-c3ncc4c(N5CC6CCC(C5)N6)nc(OCC56CCCN5CC(F)C6)nc4c3F)c12 (stereo not drawn) + CCN1C(C(=O)NC23CCC(C(=O)O)(CC2)CC3)C(c2cccc(Cl)c2F)C2(C(=O)Nc3cc(Cl)ccc32)C12CCCCC2	> 10 µM

Query string: Reported IC50, compound CCN1CCN(Cc2ccc(Nc3ncc(F)c(-c4cc(F)c5nc(C)n(C(C)C)c5c4)n3)nc2)CC1 + CCN1C(C(=O)NC23CCC(C(=O)O)(CC2)CC3)C(c2cccc(Cl)c2F)C2(C(=O)Nc3cc(Cl)ccc32)C12CCCCC2 : ____
Result string: > 1 µM

Query string: Next compound up: C=CC(=O)N1CCN(c2nc(=O)n(-c3c(C)ccnc3C(C)C)c3nc(-c4c(O)cccc4F)c(F)cc23)C(C)C1 (stereo not drawn) + CCN1C(C(=O)NC23CCC(C(=O)O)(CC2)CC3)C(c2cccc(Cl)c2F)C2(C(=O)Nc3cc(Cl)ccc32)C12CCCCC2
Result string: > 10 µM

----------
- System: PANC-1 complex spheroid growth, percent test/control
- protocol_description: Anticancer human tumor PANC-1 cell line growth inhibition [Asc];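 note: spheroids exposed to agents for 7 days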;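 for viability, T/C: percent viability relative to DMSO vehicle wells taken as 100%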
- measurement_context: second compound 0.01 µM; first compound 0.316 µM; stronger effect = lower value
measurement_name: viability, T/C (%)
Output spec: scalar in %, unitless text.

Worked set:
compound	tested_on	measurement_name	endpoint_value
C=CC(=O)N1CCN(c2nc(=O)n(-c3c(C)ccnc3C(C)C)c3nc(-c4c(O)cccc4F)c(F)cc23)C(C)C1 (stereo not drawn) + CNC(C)C(=O)NC1CN(S(=O)(=O)c2cccc(S(=O)(=O)N3CCC4CCC(C(=O)NC(c5ccccc5)c5ccccc5)N4C(=O)C(NC(=O)C(C)NC)C3)c2)CCC2CCC(C(=O)NC(c3ccccc3)c3ccccc3)N2C1=O	PANC-1 complex spheroid growth, percent test/control	viability, T/C	102
COc1c(OCCCN2CCOCC2)ccc2c3n(c(=NC(=O)c4cnc(N)nc4)nc12)CCN3 + CNC(C)C(=O)NC1CN(S(=O)(=O)c2cccc(S(=O)(=O)N3CCC4CCC(C(=O)NC(c5ccccc5)c5ccccc5)N4C(=O)C(NC(=O)C(C)NC)C3)c2)CCC2CCC(C(=O)NC(c3ccccc3)c3ccccc3)N2C1=O	PANC-1 complex spheroid growth, percent test/control	viability, T/C	44

Here is the next item to consider.
Query string: What value of measured viability, T/C is listed for O=C(c1cc(Cc2n[nH]c(=O)c3ccccc23)ccc1F)N1CCN(C(=O)C2CC2)CC1 + CNC(C)C(=O)NC1CN(S(=O)(=O)c2cccc(S(=O)(=O)N3CCC4CCC(C(=O)NC(c5ccccc5)c5ccccc5)N4C(=O)C(NC(=O)C(C)NC)C3)c2)CCC2CCC(C(=O)NC(c3ccccc3)c3ccccc3)N2C1=O ?
Result string: 105

----------
- Tested on: PANC-1 complex spheroid growth, percent test/control
- protocol_description: Anticancer human tumor PANC-1 cell line growth inhibition [Asc];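 note: spheroids exposed to agents for 7 days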;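 for viability, T/C: percent viability relative to DMSO vehicle wells taken as 100%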
- measurement_context: second compound 0.949 µM; first compound 0.01 µM; stronger effect = lower value
measurement_name: viability, T/C

See these solved cases before continuing.
molecule	endpoint_value
NC1CCC(NC2CC2c2ccccc2)CC1 (stereo unspecified) + CCN1C(C(=O)NC23CCC(C(=O)O)(CC2)CC3)C(c2cccc(Cl)c2F)C2(C(=O)Nc3cc(Cl)ccc32)C12CCCCC2	107%
CNC(C)C(=O)NC1CN(S(=O)(=O)c2cccc(S(=O)(=O)N3CCC4CCC(C(=O)NC(c5ccccc5)c5ccccc5)N4C(=O)C(NC(=O)C(C)NC)C3)c2)CCC2CCC(C(=O)NC(c3ccccc3)c3ccccc3)N2C1=O (stereo unspecified) + CCN1C(C(=O)NC23CCC(C(=O)O)(CC2)CC3)C(c2cccc(Cl)c2F)C2(C(=O)Nc3cc(Cl)ccc32)C12CCCCC2	100%
COc1c(OCCCN2CCOCC2)ccc2c3n(c(=NC(=O)c4cnc(N)nc4)nc12)CCN3 + CCN1C(C(=O)NC23CCC(C(=O)O)(CC2)CC3)C(c2cccc(Cl)c2F)C2(C(=O)Nc3cc(Cl)ccc32)C12CCCCC2	96.7%
O=C(c1ccc(F)c(F)c1Nc1ccc(I)cc1F)N1CC(O)([C@@H]2CCCCN2)C1 + CCN1C(C(=O)NC23CCC(C(=O)O)(CC2)CC3)C(c2cccc(Cl)c2F)C2(C(=O)Nc3cc(Cl)ccc32)C12CCCCC2	104%
Cn1ncnc1[C@H]1c2n[nH]c(=O)c3cc(F)cc(c23)N[C@@H]1c1ccc(F)cc1 + CCN1C(C(=O)NC23CCC(C(=O)O)(CC2)CC3)C(c2cccc(Cl)c2F)C2(C(=O)Nc3cc(Cl)ccc32)C12CCCCC2	107%

Query string: Would you kindly share the measured viability, T/C for CCN1CCN(Cc2ccc(Nc3ncc(F)c(-c4cc(F)c5nc(C)n(C(C)C)c5c4)n3)nc2)CC1 + CCN1C(C(=O)NC23CCC(C(=O)O)(CC2)CC3)C(c2cccc(Cl)c2F)C2(C(=O)Nc3cc(Cl)ccc32)C12CCCCC2 ?
Result string: 119%

----------
- Tested on: PANC-1 complex spheroid growth, percent test/control
- protocol_description: Anticancer human tumor PANC-1 cell line growth inhibition [Asc];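 note: spheroids exposed to agents for 7 days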;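 for viability, T/C: percent viability relative to DMSO vehicle wells taken as 100%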
- measurement_context: second compound 0.316 µM; first compound 0.001 µM; stronger effect = lower value
measurement_name: viability, T/C (%)
Numeric only. Scale: %

molecule	viability, T/C, %
NC1CCC(NC2CC2c2ccccc2)CC1 (centres undefined) + Cc1c(S(C)(=O)=O)c(-c2cc(F)cc(N3CCN(c4ccc(NS(=O)(=O)c5ccc(NC(CCN6CCC(C(=O)OCCCP(=O)(O)O)CC6)CSc6ccccc6)c(S(=O)(=O)C(F)(F)F)c5)cc4)CC3)c2)c(-c2ccc(Cl)cc2)n1C(C)C	97.1
Cn1ncnc1[C@H]1c2n[nH]c(=O)c3cc(F)cc(c23)N[C@@H]1c1ccc(F)cc1 + Cc1c(S(C)(=O)=O)c(-c2cc(F)cc(N3CCN(c4ccc(NS(=O)(=O)c5ccc(NC(CCN6CCC(C(=O)OCCCP(=O)(O)O)CC6)CSc6ccccc6)c(S(=O)(=O)C(F)(F)F)c5)cc4)CC3)c2)c(-c2ccc(Cl)cc2)n1C(C)C	108
NC1CCC(NC2CC2c2ccccc2)CC1 (centres undefined) + CNC(C)C(=O)NC1CN(S(=O)(=O)c2cccc(S(=O)(=O)N3CCC4CCC(C(=O)NC(c5ccccc5)c5ccccc5)N4C(=O)C(NC(=O)C(C)NC)C3)c2)CCC2CCC(C(=O)NC(c3ccccc3)c3ccccc3)N2C1=O	97.9

Query string: What value of viability, T/C has been recorded for this entry: Cn1ncnc1[C@H]1c2n[nH]c(=O)c3cc(F)cc(c23)N[C@@H]1c1ccc(F)cc1 + CNC(C)C(=O)NC1CN(S(=O)(=O)c2cccc(S(=O)(=O)N3CCC4CCC(C(=O)NC(c5ccccc5)c5ccccc5)N4C(=O)C(NC(=O)C(C)NC)C3)c2)CCC2CCC(C(=O)NC(c3ccccc3)c3ccccc3)N2C1=O
Result string: 98.4
